# System: U-937
# MEASUREMENT_PROTOCOL: cells
# Assay type: functional, cell-based
# TEST_CONTEXT: Homo sapiens, U-937, 72 h
# Description: Antiproliferative activity against human U-937 cells assessed as inhibition of cell growth measured after 72 hrs by CCK-8 assay
PROPERTY_LABEL: IC50 (µM)
Answers are plain numbers, in µM.

Ask: Form field: reported IC50 of COc1cc(Nc2nc(N3CCN(c4ncc(C(=O)NO)cn4)CC3)ncc2Cl)cc(OC)c1
Result: 0.28

---

# MEASUREMENT_PROTOCOL: Metabolic stability in human liver microsomes assessed as half life by LC-MS/MS analysis
# Format: ADME, Microsome
PROPERTY_LABEL: half-life
# output: numeric value plus its unit

Ask: Return reported half-life; argument: O=C(CCCCCCC(=O)Nc1nc2ccc(OC(F)(F)F)cc2s1)NO
Result: 56 min

---

# MEASUREMENT_PROTOCOL: Cytotoxicity against human L02 cells
# Format: toxicity, cell-based
pIC50: −log10 of the molar value.
Kindly state pIC50 for each of the entries shown.

COMPOUND_SMILES: COCCOc1ccc2c(OCCCCCCCC(=O)NO)cc(=O)oc2c1
PROPERTY_LABEL: pIC50
RECORDED_MEASUREMENT: < 4.30
--
COMPOUND_SMILES: COc1ccc2c3ccnc(C)c3n(CC3CCN(c4ncc(C(=O)NO)cn4)CC3)c2c1
PROPERTY_LABEL: pIC50
RECORDED_MEASUREMENT: 4.95

Moving on to the next compound.
Ask: Recorded pIC50 of CCCOc1ccc2c(OCCCCCCCC(=O)NO)cc(=O)oc2c1 , please.
Result: < 4.30

---

# TEST_TARGET: UniProt Q13547
# MEASUREMENT_PROTOCOL: Inhibition of human HDAC1 incubated for 30 mins by ELISA
# TEST_CONTEXT: pooled result: one value given for 5 cell lines, strains, targets or settings
PROPERTY_LABEL: IC50 (nM)
Numbers only, in nM.

Ask: So what's the measured IC50 for this one? CCCC(CCC)C(=O)N[C@@H](Cc1ccccc1)C(=O)NO
Result: 2.86

---

# System: Daudi
# MEASUREMENT_PROTOCOL: Cytotoxicity against human Daudi cells assessed as inhibition of cell growth measured after 72 hrs by CellTiter-Glo luminescent viability assay
# Type: functional, cell-based
PROPERTY_LABEL: pIC50
One number for each entry, as −log10 of the molar value.

Ask: Tell me reported pIC50 for CNc1ccc(-c2nc(N3CCOCC3)c3sc(CN(C)c4ncc(C(=O)NO)cn4)cc3n2)cn1 , tested with Daudi.
Result: 9.52

---

# TEST_TARGET: Protein deacetylase HDAC6 (Homo sapiens, UniProt Q9UBN7)
# Sequence (Q9UBN7 whole entry): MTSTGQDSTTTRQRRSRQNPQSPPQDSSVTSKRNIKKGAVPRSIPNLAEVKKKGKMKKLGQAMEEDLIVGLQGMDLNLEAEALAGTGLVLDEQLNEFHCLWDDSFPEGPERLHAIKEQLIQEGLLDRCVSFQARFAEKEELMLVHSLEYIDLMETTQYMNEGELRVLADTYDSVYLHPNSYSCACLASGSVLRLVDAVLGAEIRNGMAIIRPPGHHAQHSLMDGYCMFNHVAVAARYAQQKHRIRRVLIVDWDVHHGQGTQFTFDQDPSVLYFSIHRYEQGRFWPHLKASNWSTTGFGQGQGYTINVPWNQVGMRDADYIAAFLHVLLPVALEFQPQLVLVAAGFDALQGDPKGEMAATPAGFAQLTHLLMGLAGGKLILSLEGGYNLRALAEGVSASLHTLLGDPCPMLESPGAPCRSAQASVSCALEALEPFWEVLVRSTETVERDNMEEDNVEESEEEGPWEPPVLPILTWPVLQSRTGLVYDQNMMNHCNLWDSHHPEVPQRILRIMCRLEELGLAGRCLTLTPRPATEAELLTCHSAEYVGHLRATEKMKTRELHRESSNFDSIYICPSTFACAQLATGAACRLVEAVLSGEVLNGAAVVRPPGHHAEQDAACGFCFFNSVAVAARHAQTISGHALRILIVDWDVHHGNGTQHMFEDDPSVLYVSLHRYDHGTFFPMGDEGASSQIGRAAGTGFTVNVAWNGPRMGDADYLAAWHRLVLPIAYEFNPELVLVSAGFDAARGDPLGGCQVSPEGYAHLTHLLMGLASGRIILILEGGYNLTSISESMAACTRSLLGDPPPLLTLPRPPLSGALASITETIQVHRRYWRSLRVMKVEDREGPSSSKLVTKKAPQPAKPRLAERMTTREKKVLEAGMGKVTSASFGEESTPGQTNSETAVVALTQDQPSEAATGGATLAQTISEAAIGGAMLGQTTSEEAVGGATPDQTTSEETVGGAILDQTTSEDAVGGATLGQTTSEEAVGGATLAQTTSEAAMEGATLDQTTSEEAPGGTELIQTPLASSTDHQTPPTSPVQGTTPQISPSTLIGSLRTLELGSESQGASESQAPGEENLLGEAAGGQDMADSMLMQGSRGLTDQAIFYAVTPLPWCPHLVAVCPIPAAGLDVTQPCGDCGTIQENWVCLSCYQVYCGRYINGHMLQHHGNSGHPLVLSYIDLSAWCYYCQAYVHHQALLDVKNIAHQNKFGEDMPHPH
# MEASUREMENT_PROTOCOL: Inhibition of HDAC6 (unknown origin) using Boc-Lys(acetyl)-AMC as substrate preincubated for 5 mins followed by substrate addition and measured after 30 mins by fluorescence based assay
PROPERTY_LABEL: IC50 (µM)
Answers are plain numbers, in µM.

Ask: Query (molecule): O=C(NO)c1ccc(CNc2ncnc3[nH]ccc23)cc1 ; field requested: IC50
Result: 0.01

---

# Tested on: HT-29
# MEASUREMENT_PROTOCOL: Antiproliferative activity against human HT-29 cells
# Assay type: functional, cell-based
PROPERTY_LABEL: IC50 (nM)
Answers are plain numbers, in nM.

COMPOUND_SMILES: COc1ccc2c3ccnc(C)c3n(CC3CCN(c4ncc(C(=O)NO)cn4)CC3)c2c1
TEST_TARGET: HT-29
UNIT_SPEC: nM
IC50: 1410

Ask: Tell me the measured IC50 of O=C(NO)c1ccc(NC(=O)C2(c3ccc(-c4cn[nH]c4)cc3)CCCCC2)cc1 , please.
Result: 50

---

Give IC50 for every item shown.
# Tested on: A-375
# MEASUREMENT_PROTOCOL: Antiproliferative activity against human A-375 cells
# Assay type: functional, cell-based
Answers are plain numbers, in µM.

COMPOUND_SMILES: O=C(Cc1ccc(C(=O)NO)cc1)Nc1ccc2ncnc(Nc3ccc(I)cc3)c2c1
UNIT_SPEC: µM
RECORDED_MEASUREMENT: 2.2

Here's the next entry for you.
Ask: Item under review: O=C(Cc1ccc(C(=O)NO)cc1)Nc1ccc2ncnc(Nc3ccc(Cl)c(F)c3)c2c1 . Reported IC50?
Result: 2.2

---

# Tested on: NCI-H23
# MEASUREMENT_PROTOCOL: Antiproliferative activity against human NCI-H23 cells incubated for 48 hrs by colorimetric method
# Assay type: functional, cell-based
# TEST_CONTEXT: NCI-H23, 48 h
Kindly state pIC50 for each of the entries shown.
Give bare numbers, as −log10 of the molar value.

Examples with their reported pIC50 follow.
COMPOUND_SMILES: Cc1ccc(Cn2cnc3cc(/C=C/C(=O)NO)ccc3c2=O)cc1
pIC50: 6.17
--
COMPOUND_SMILES: O=C(/C=C/c1cccc(S(=O)(=O)Nc2ccccc2)c1)NO
pIC50: 5.60

Okay, next one:
Ask: Look at this compound and give its reported pIC50. O=C(/C=C/c1ccc2c(=O)n(Cc3ccc(Cl)cc3)cnc2c1)NO
Result: 6.17

---

# Test system: MM96L
# MEASUREMENT_PROTOCOL: Antiproliferative activity against human MM96L cells
# Assay type: functional, cell-based
PROPERTY_LABEL: pIC50
Answers are plain numbers, as −log10 of the molar value.

Ask: Find the recorded pIC50 belonging to O=C(NO)c1ccc(NC(=O)C2(c3ccc(-c4cn[nH]c4)cc3)CCCCC2)cc1 and report it.
Result: 7.30

---

# TEST_TARGET: Phosphatidylinositol 4,5-bisphosphate 3-kinase catalytic subunit alpha isoform (Homo sapiens, UniProt P42336)
# Sequence (P42336 whole entry, canonical isoform): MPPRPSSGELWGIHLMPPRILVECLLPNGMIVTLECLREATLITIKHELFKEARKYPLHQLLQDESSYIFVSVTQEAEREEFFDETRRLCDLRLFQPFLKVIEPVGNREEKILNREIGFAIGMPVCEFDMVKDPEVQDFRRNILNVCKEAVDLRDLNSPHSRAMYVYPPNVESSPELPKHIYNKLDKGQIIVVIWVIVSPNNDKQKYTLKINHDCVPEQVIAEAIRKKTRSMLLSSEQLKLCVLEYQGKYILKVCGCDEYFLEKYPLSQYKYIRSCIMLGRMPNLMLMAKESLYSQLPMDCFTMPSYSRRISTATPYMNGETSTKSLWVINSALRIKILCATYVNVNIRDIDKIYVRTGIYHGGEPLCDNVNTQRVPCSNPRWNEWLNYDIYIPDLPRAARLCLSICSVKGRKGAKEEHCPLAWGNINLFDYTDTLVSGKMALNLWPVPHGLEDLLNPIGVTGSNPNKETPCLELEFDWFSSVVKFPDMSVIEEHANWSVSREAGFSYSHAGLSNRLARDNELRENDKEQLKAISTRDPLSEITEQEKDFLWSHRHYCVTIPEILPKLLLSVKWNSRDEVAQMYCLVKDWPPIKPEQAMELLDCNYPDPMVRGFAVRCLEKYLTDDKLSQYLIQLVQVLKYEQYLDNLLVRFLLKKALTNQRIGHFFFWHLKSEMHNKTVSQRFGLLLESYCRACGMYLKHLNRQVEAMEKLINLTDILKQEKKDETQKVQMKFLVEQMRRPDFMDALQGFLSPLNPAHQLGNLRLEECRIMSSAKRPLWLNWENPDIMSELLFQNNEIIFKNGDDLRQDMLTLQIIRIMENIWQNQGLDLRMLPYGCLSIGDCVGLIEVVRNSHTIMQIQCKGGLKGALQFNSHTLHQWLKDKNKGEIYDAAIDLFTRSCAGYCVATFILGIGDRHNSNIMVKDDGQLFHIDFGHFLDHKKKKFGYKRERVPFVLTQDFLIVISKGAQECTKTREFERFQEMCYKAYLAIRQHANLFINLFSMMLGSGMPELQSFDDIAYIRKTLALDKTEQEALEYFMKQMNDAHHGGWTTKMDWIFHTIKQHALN
# MEASUREMENT_PROTOCOL: Inhibition of PI3Kalpha (unknown origin)
What IC50 was measured for each of the following?
Answers are plain numbers, in nM.

Known results for compounds:
COMPOUND_SMILES: COc1ncc(-c2ccc3nccc(C(=O)NCCCCC(=O)NO)c3c2)cc1NS(=O)(=O)c1cc(F)cc(F)c1
UNIT_SPEC: nM
IC50: 1.3

COMPOUND_SMILES: COc1ncc(-c2ccc3nccc(C(=O)NCCCCCC(=O)NO)c3c2)cc1NS(=O)(=O)c1cc(F)cc(F)c1
UNIT_SPEC: nM
IC50: 1.3

# evaluate next
Ask: Recorded IC50 of COc1ncc(-c2ccc3ncc(C(=O)NCCCCCCC(=O)NO)cc3c2)cc1NS(=O)(=O)c1ccc(F)cc1F , please.
Result: 1.3

---

Give measured IC50 for each item. Keep answers brief.
# TEST_TARGET: Protein deacetylase HDAC6 (Homo sapiens)
# MEASUREMENT_PROTOCOL: Inhibition of HDAC6 (unknown origin)

Below are worked cases with known answers.
COMPOUND: COc1ccc(-c2cc(-c3ccc(C(C)C)cc3)cnc2NCc2ccc(C(=O)NO)cc2)cc1
PROPERTY_LABEL: IC50
RECORDED_MEASUREMENT: 180 nM
//
COMPOUND: CNCCOc1ccc(-c2cc(=O)c3cc(OCCCCCC(=O)NO)cc(O)c3o2)cc1
PROPERTY_LABEL: IC50
RECORDED_MEASUREMENT: 30 nM

Dear colleague, could you please provide IC50 for the compounds listed below?
1. O=C(CCCCCCNc1nccc(-c2sc(-c3ccccc3)nc2-c2cccc(NS(=O)(=O)c3c(F)cccc3F)c2F)n1)NO
2. CNC(=O)c1ccccc1Nc1nc(Nc2ccc(NC(=O)CCCCCCC(=O)NO)cc2)ncc1Cl
3. O=C(Cc1ccc(C(=O)NO)cc1)Nc1ccc2ncnc(Nc3ccc(Cl)c(F)c3)c2c1

Result:
15.6 nM
16 nM
1490 nM

---

# TEST_TARGET: Histone deacetylase 3 (Homo sapiens, UniProt O15379)
# Sequence (O15379 whole entry): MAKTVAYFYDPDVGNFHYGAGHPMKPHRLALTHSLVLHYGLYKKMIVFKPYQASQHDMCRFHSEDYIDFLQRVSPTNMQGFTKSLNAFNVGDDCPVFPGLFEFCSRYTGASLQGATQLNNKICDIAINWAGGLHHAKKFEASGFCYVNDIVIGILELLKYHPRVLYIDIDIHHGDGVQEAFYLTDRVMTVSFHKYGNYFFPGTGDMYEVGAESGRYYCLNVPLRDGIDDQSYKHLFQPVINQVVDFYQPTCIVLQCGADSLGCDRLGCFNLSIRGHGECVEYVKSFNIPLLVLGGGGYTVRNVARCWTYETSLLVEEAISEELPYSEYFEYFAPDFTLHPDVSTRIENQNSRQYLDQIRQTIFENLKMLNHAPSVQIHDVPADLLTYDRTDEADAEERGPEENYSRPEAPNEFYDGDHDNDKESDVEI
# MEASUREMENT_PROTOCOL: Inhibition of recombinant HDAC3 (unknown origin) using Boc-Lys (acetyl)-AMC as substrate preincubated for 1 hr followed by substrate addition and measured after 2 hrs by fluorescence based analysis
PROPERTY_LABEL: pIC50
Answers are plain numbers, as −log10 of the molar value.

Ask: Consider the compound Cn1cc(CCCC(=O)Nc2ccc(C(=O)NO)cc2)c2ccccc21 and give its measured pIC50.
Result: 7.86

---

# Tested on: MCF7
# MEASUREMENT_PROTOCOL: Antiproliferative activity against human MCF7 cells assessed as inhibition of cell growth incubated for 72 hrs by MTT assay
# Assay type: functional, cell-based
# TEST_CONTEXT: MCF7, 72 h
PROPERTY_LABEL: IC50

Ask: Which IC50 is reported for this compound? Nc1nc2ccc(OC(F)(F)F)cc2s1
Result: > 10 µM

---

# TEST_TARGET: Histone deacetylase 1 (Homo sapiens)
# Sequence (Q13547 whole entry): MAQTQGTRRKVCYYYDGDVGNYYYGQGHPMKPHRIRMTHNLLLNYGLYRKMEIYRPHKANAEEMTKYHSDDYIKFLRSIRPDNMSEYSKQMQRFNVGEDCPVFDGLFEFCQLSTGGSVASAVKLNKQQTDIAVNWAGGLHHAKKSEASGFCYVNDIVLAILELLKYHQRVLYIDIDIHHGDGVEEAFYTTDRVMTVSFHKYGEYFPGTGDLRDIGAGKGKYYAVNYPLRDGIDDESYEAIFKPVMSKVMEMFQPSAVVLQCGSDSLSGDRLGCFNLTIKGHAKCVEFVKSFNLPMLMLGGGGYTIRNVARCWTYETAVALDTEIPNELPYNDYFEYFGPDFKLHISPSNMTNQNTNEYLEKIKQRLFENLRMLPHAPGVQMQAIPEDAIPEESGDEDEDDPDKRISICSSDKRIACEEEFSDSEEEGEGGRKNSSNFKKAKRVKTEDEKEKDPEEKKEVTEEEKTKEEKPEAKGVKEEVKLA
# MEASUREMENT_PROTOCOL: Inhibition of HDAC1 (unknown origin) using Ac-peptide as substrate pretreated for 15 mins followed by substrate addition and measured after 60 mins
PROPERTY_LABEL: IC50 (nM)
Numbers only, in nM.

Ask: Given the entry COc1cc2c(Oc3ccc(NC(=O)C4CCN(c5ccc(F)cc5)C4=O)cc3)ccnc2cc1OCCCCCCC(=O)NO (stereo unspecified) , what IC50 was observed with Histone deacetylase 1 (Homo sapiens)?
Result: 27
